# Test system: NOMO1
# procedure_text: cell viability relative to DMSO control; higher = less cytotoxic
# condition_set: RPMI 5 mM glucose + 10% dialyzed FBS; 48 h; 1.71 µM

{"columns": ["compound", "units", "cell viability"],
 "data": [
  ["C[C@@H](Oc1cc(-c2cnn(C3CCNCC3)c2)cnc1N)c1c(Cl)ccc(F)c1Cl", "%", 110],
  ["COC(=O)Nc1cc(Nc2cc(NC3CC3)c3ncc(C#N)n3n2)c(Cl)c(N2CCN(C)CC2)c1", "%", 66.9],
  ["C[C@H]1COC2=C3N1\\C=C(C(O)=O)/C(=O)C3=CC(=C2N4CCN(C)CC4)F", "%", 112],
  ["CC(C)c1noc(N2CCC(COc3ccc(-c4ccc([S+](C)(=O)[O-])cc4)nc3)CC2)n1", "%", 109],
  ["O=C1[C@H](Cc2ccc(O)cc2)N2C(=O)CCN(C(=O)NCc3ccccc3)[C@H]2CN1Cc1cccc2ccccc12", "%", 82.7],
  ["O=C(O)CCC1CCC(c2cc(F)ccc2F)([S+](=O)([O-])c2ccc(Cl)cc2)CC1 (stereo unspecified)", "%", 102],
  ["COc1cc(OC2CCN(C)CC2)ccc1Nc1ncc2c(n1)n(C1CCCC1)c(=O)n2C", "%", 100],
  ["O=C(Nc1cc(Cl)cc2c1[nH]c1cnccc12)c1cccnc1", "%", 123],
  ["COc1ccc(-c2ccc3ncc4c(c3c2)n(-c2ccc(N3CCNCC3)c(C(F)(F)F)c2)c(=O)n4C)cn1", "%", 29.8],
  ["CC[C@]12CC[C@H]3[C@@H](CCC/4=C/C(=O)CC[C@H]34)[C@@H]1\\C=C/[C@@]2(O)C#C", "%", 133],
  ["CN(C)C1CCN(C(=O)c2ccc(NC(=O)Nc3nc(N4CCOCC4)nc(N4CCOCC4)n3)cc2)CC1", "%", 44.4],
  ["C[C@@]12C(=O)OC(=O)[C@@]1(C)C1CCC2O1", "%", 89.8],
  ["Cc1c(C)n(Cc2ccc(-c3ccccc3C(=O)O)cc2)c2ccc(C(=O)N[C@@H](C)c3ccc([N+](=O)[O-])cc3)cc12", "%", 106],
  ["COC(=O)C[C@](O)(CCCC(C)(C)O)C(=O)O[C@@H]1C(OC)=CC23CCCN2CCc2cc4c(cc2[C@H]13)OCO4 (stereo partly specified)", "%", 100],
  ["O=C1c2ccccc2-[n+]2ccc3c([nH]c4ccccc43)c21", "%", 102],
  ["CC(C)(C)OC(=O)N[C@H]1CCCCC/C=C\\[C@@H]2C[C@@]2(C(=O)N[S+](=O)([O-])C2CC2)NC(=O)[C@@H]2C[C@@H](OC(=O)N3Cc4cccc(F)c4C3)CN2C1=O", "%", 109]
]}

---

# Test system: SEM cells
# procedure_text: cell viability relative to DMSO control; higher = less cytotoxic
# condition_set: HPLM + 10% dialyzed FBS; 48 h; 0.569 µM
We label by threshold. Values of cell viability strictly beneath 80% are Y. Values of 80% and up are N.

{"columns": ["compound", "answer_label"],
 "data": [
  ["CCCCC(=O)O[C@]1(C(=O)CO)[C@H](C)C[C@H]2[C@@H]3CCC4=CC(=O)C=C[C@]4(C)[C@@]3(F)[C@@H](O)C[C@@]21C", "N"],
  ["COCC1(CO)C(=O)C2CCN1CC2 (stereo not given)", "Y"],
  ["c1ccc(CCCN2CCN(CCOC(c3ccccc3)c3ccccc3)CC2)cc1", "N"],
  ["FC1=CC=C(C=C1)N2/C=C\\C=C(C(=O)NC3=CC=C(OC4=C5C=C[NH]C5=NC=C4)C(=C3)F)/C2=O", "N"],
  ["C[C@H](NC(=O)c1sccc1OCc1ccc(Cl)cc1)c1ccccc1", "N"]
]}

---

# System: P12-Ichikawa
# procedure_text: cell viability relative to DMSO control; higher = less cytotoxic
# condition_set: HPLM + 10% dialyzed FBS; 48 h; 0.569 µM
Below, each entry is listed alongside its reported cell viability.
measured_quantity: cell viability (%)

{"columns": ["smiles_entry", "measured_result"],
 "data": [
  ["O=C(O)Cn1nnc(-c2cc(N3CCC(Oc4cc(F)ccc4Br)CC3)no2)n1", 105],
  ["CC(C)OC(=O)C(C(=O)OC(C)C)=C1S\\C=C/S1", 123],
  ["CN[C@H]1CCC2=CC(=C(OC)C(=C2C/3=C/C=C(OC)\\C(=O)/C=C13)OC)OC", 11.2],
  ["O=c1[nH]c(=O)n([C@H]2C[C@H](O)[C@@H](CO)O2)cc1/C=C/Br", 60.8],
  ["COc1ccc(-c2ccc3ncc4c(c3c2)n(-c2ccc(N3CCNCC3)c(C(F)(F)F)c2)c(=O)n4C)cn1", 48.9]
]}

---

# System: P12-Ichikawa
# procedure_text: cell viability relative to DMSO control; higher = less cytotoxic
# condition_set: RPMI 5 mM glucose + 10% FBS; 48 h; 1.71 µM
Item-by-item account of cell viability

{"columns": ["smiles_entry", "cell viability (%)"],
 "data": [
  ["c1ccc(CCCN2CCN(CCOC(c3ccccc3)c3ccccc3)CC2)cc1", 90.2],
  ["C[C@H]1C[C@@H]2[C@H](CC[C@@]3(C)[C@H]2CC[C@]3(OC(C)=O)C(C)=O)[C@@]\\4(C)CCC(=O)\\C=C14", 101],
  ["OC[C@@H](O)[C@@H](O)[C@H](O)[C@@H](O)CO", 141],
  ["CC(C)(C)NC(=O)Nc1cccc(Nc2ncc(F)c(NC(C)(C)CO)n2)c1", 132],
  ["CC(C)(C#N)c1cc(Cn2cncn2)cc(C(C)(C)C#N)c1", 131],
  ["CC(C)c1nc(CN(C)C(=O)N[C@H](C(=O)N[C@@H](Cc2ccccc2)C[C@H](O)[C@H](Cc2ccccc2)NC(=O)OCc2cncs2)C(C)C)cs1", 90.1],
  ["CNCCCC12CCC(c3ccccc31)c1ccccc12", 90.2],
  ["COC(=O)Nc1cc(Nc2cc(NC3CC3)c3ncc(C#N)n3n2)c(Cl)c(N2CCN(C)CC2)c1", 92.8],
  ["COc1ccc([C@@H]2CC(=O)c3c(O)cc(O[C@@H]4O[C@H](CO[C@@H]5O[C@@H](C)[C@H](O)[C@@H](O)[C@H]5O)[C@@H](O)[C@H](O)[C@H]4O)cc3O2)cc1O", 119]
]}

---

Each record here notes measured cell viability.
# System: SEM cells
# procedure_text: cell viability relative to DMSO control; higher = less cytotoxic
# condition_set: RPMI 5 mM glucose + 10% dialyzed FBS; 48 h; 0.0632 µM

{"columns": ["compound", "units", "cell viability"],
 "data": [
  ["O=C(c1ccc(F)cc1)N1CCC[C@H](c2nc(-c3ccc(F)cc3)no2)C1", "%", 105],
  ["CCOC(=O)[C@@H](N)Cc1ccc(-c2cc(O[C@H](c3ccc(Cl)cc3-n3ccc(C)n3)C(F)(F)F)nc(N)n2)cc1.O=C(O)CNC(=O)c1ccccc1", "%", 102],
  ["CN(C)[S+](=O)([O-])c1ccc2c(c1)C(=Cc1cc3c([nH]1)CCCC3)C(=O)N2", "%", 120],
  ["CC1CNc2c(cccc2[S+](=O)([O-])N[C@@H](CCCNC(=N)N)C(=O)N2CC[C@@H](C)C[C@@H]2C(=O)O)C1 (some centres undefined)", "%", 99.1]
]}

---

# Test system: P12-Ichikawa
# procedure_text: cell viability relative to DMSO control; higher = less cytotoxic
# condition_set: RPMI 5 mM glucose + 10% dialyzed FBS; 48 h; 0.000781 µM
Each entry below carries its recorded cell viability.

{"columns": ["compound", "cell viability, %"],
 "data": [
  ["C[C@]12COC(=O)C[C@@H]1CC[C@@H]1[C@@H]2CC[C@@]2(C)[C@H]1CC[C@]2(C)O", 101],
  ["Clc1ccc(-c2nc3sccn3c2/C=N/OCc2ccc(Cl)c(Cl)c2)cc1", 114],
  ["Cc1nn(Cc2ccccc2Cl)c(C)c1CN(C)CC(O)COc1ccc(Cl)cc1 (stereo unspecified)", 94],
  ["CC[C@H](NC1=C2N=C[NH]C2=NC=N1)C/3=N/C4=C(C(=CC=C4)F)C(=O)N3C5=CC=CC=C5", 124],
  ["C[C@H]1COC2=C3N1\\C=C(C(O)=O)/C(=O)C3=CC(=C2N4CCN(C)CC4)F", 109],
  ["CC(C)OC(=O)/C1=C/N(CC(C)(C)C2=C1[NH]C3=CC=CC=C23)C(=O)C4=CC=C(F)C(=C4)F", 75.3],
  ["COCC1(CO)C(=O)C2CCN1CC2 (stereo unspecified)", 103],
  ["CCOC(=O)N1CCN(/[N+]([O-])=N/Oc2ccc([N+](=O)[O-])cc2C#N)CC1", 103],
  ["FC1=C(C=C(C\\C2=N\\NC(=O)C3=C2C=CC=C3)C=C1)C(=O)N4CCN(CC4)C(=O)C5CC5", 78.9],
  ["O=C1NC(=O)/C(=C/c2ccc3nccc(-c4ccncc4)c3c2)S1", 104],
  ["O=C(O)C1(Cc2cccc(Nc3nccs3)n2)CCC(Oc2cccc(Cl)c2F)CC1 (stereo unspecified)", 108]
]}

These entries and their values trace back to the supplement of paper PMC11451515.
